// data source = ChEMBL document CHEMBL1132659

TESTED_ON: GABA-A receptor; alpha-1/beta-2/gamma-2 (Homo sapiens) (UniProt P14867+P47870+P18507)
PROTOCOL_DETAILS: Modulatory activity against human GABA-A receptor alpha-1-beta-2-gamma-2 subunits expressed in Xenopus laevis Oocytes at 10 uM
Format: cell-based
VALUE_KIND: Activity

> print(dat)
                                   compound                                 tested.on  rel  reported.value
1  CCCN(CCC)C(=O)Cc1c(-c2ccccc2)nc2ccc(C(=O)OC)cn12  GABA-A receptor; alpha-1/beta-2/gamma-2 (Homo sapiens) (UniProt P14867+P47870+P18507)    =            17.1
2  CCC(C)N(C)C(=O)c1cc2ccccc2c(-c2ccccc2Cl)n1 (stereo unspecified)  GABA-A receptor; alpha-1/beta-2/gamma-2 (Homo sapiens) (UniProt P14867+P47870+P18507)    =             -16
3  CCCN(CCC)C(=O)Cc1c(-c2ccc(Cl)cc2)nc2c(C)cccn12  GABA-A receptor; alpha-1/beta-2/gamma-2 (Homo sapiens) (UniProt P14867+P47870+P18507)    =            -9.6
4  CCCCN(CCCC)C(=O)Cc1c(-c2ccc(Cl)cc2)nc2ccccn12  GABA-A receptor; alpha-1/beta-2/gamma-2 (Homo sapiens) (UniProt P14867+P47870+P18507)    <            23.2
5  CCCCN(CCCC)C(=O)Cc1c(-c2ccccc2)nc2ccccn12  GABA-A receptor; alpha-1/beta-2/gamma-2 (Homo sapiens) (UniProt P14867+P47870+P18507)    =            17.4
6  CCCN(CCC)C(=O)Cc1c(-c2ccc(Cl)cc2)nc2c(Cl)cccn12  GABA-A receptor; alpha-1/beta-2/gamma-2 (Homo sapiens) (UniProt P14867+P47870+P18507)    =             4.5
